Consider the following compounds; for each one, report its melting point.

Recorded results for 2 compounds are shown here.
* CCOc1ccc2c(c1)n(-c1ccccc1Cl)c(=O)n2Cc1ccc(NC(=O)N(CC)CC)cc1OC | 150 °C
* O=C(O)c1c([N+](=O)[O-])cccc1[N+](=O)[O-] | 200 to 202 °C

# ---- query compound ----
Exercise: Fill in: melting point of CCCN(CCC)C1Cc2cccc3c2n(c(=O)n3C)C1 (stereo not drawn) is ___
Solution: 83 to 85 °C

====

Provide the reported melting point of each item.

Worked cases, melting point given:
• COC(=O)c1nnc(NC(=O)CCCOc2cccc(CN3CCCCC3)c2)n1C = 108 to 110 °C
• COC(=O)/C=C/C=C(\C)c1ccc(OC)cc1 = 84 to 86 °C
• CCCOc1ccc2c(c1)C(=O)C=C2c1ccc2c(c1)OCO2 = 90 to 93 °C
• CN1C(=O)C(NC(=O)NC(C)(C)C)N=C(c2ccccc2)c2ccccc21 (centres undefined) = 281 to 282 °C
• CC(=O)c1cc2nc(S(=O)Cc3nccc4c3OCO4)[nH]c2cc1C (centres undefined) = 178 to 180 °C

Lab note: each molecule below needs its melting point filled in.
1. CC(C)c1nc2c([nH]1)c(=S)[nH]c(=O)n2-c1cccc(Cl)c1
2. OC1CCC(Oc2ccc3[nH]ncc3c2)CC1 (centres undefined)
3. Cc1ccc(C2=CC(O)CN(C)C2)cc1 (centres undefined)

Solution:
290 to 293 °C
112 to 118 °C
67 to 69 °C

Give melting point for all molecules that follow.
1. CSc1nnc(N2CCN(c3ccc(N4CC(CNC(C)=O)OC4=O)cc3F)CC2)s1 (centres undefined)
2. CNS(=O)(=O)c1ccc(Nc2cc(-n3ccc(C(F)(F)F)n3)c3ccccc3n2)cc1
3. CN(C)Cc1c[nH]c2ccc(CCS(=O)(=O)N(C)C)cc12
4. CCN1CCN(c2cc3c(cc2F)c(=O)c(C(=O)O)cn3CC)CC1
5. COc1ccc(CN(Cc2ccc(OC)cc2)c2nc(Cl)c3ncn(Cc4ccc(OC)cc4)c3n2)cc1
6. O=Cc1cc2ccc3c4ccccc4ccc3c2o1
7. O=C(CCl)N(CCc1[nH]c2ccccc2c1-c1ccccc1)CC1CC1
8. CCCCc1ccc(C(=O)NCCC(C)(C)C)cc1

Solution:
222 to 223 °C
220 to 222 °C
156 to 159 °C
251 to 253 °C
157 to 159 °C
123 °C
104 to 106 °C
70 to 71 °C

// each molecule listed below needs its melting point
1. O=C(Cc1ccc(C(F)(F)F)cc1)NCc1ccc2c(c1)CN(C1CCC(=O)NC1=O)C2=O (centres undefined)
2. COc1ccc(-n2nc(C(F)F)cc2-c2ccc(SC)cc2)cc1
3. O=C(Nc1ccc(F)c(C(F)(F)F)c1)c1cccc2cc(OS(=O)(=O)C(F)(F)F)ccc12
4. COC(=O)c1ccc(=O)n(CCNC(=O)c2cc(Cl)ccc2OC)c1
5. COc1nc2c(c3ccccc13)c1cc(Cl)ccc1n2C
6. O=C(CCCCc1ccc2c(c1)OCO2)NC1CCCCC1
7. CCOC(=O)C(NC(C)=O)(C(=O)OCC)[C@@H]1CC(=O)C[C@H]1NC(=O)OC(C)(C)C (relative stereo)
8. O=c1c2ccccc2[nH]n1-c1ccccc1F

Solution:
["217 to 219 °C", "100 to 101 °C", "171 to 172 °C", "149 to 150 °C", "179 to 180 °C", "145 to 146 °C", "135 to 136 °C", "156 to 159 °C"]

Provide melting point for all items below, preserving their order.
1. CCOC(=O)C1=C(C)NC(C)=C(C(=O)OCC)C1c1ccccc1/C=C/C(=O)OC1CCCC1
2. Cc1ccc(-c2ccccc2-c2n[nH]c(C(c3ccccc3)(c3ccccc3)c3ccccc3)n2)cc1
3. Cn1c(CC#N)ccc1C(=O)c1cccc(Cl)c1
4. Cc1c(C)c2c(c(C)c1NC(=O)C(O)C(C)(C)C)C(c1ccc(C(C)C)cc1)CO2 (centres undefined)

Solution:
182 to 184 °C
120 to 122 °C
122 to 127 °C
165 to 166 °C

For every record below, what is its melting point?
1. Cc1ccc(OC(=O)c2cccc(C(=O)Oc3ccc(C)cc3-n3nc4ccccc4n3)c2)c(-n2nc3ccccc3n2)c1
2. Cc1nc2c(C)cc(Oc3cnc(N)nc3N)c(C(C)C)c2o1
3. CCc1cc(OCc2ccc3oc(-c4ccccc4C(=O)OC)nc3c2)c2c(n1)CCCC2
4. O=C(O)CC(NC(=O)C1CCCN2C(=O)CCC(NC(=O)c3ccccc3)C(=O)N12)C(=O)COC(=O)c1c(Cl)cccc1Cl (centres undefined)
5. Cc1nnc(-c2ccccc2)n1-c1ccccc1

Solution:
1. 115 to 118 °C
2. > 300 °C
3. 131 to 132 °C
4. 126 to 130 °C
5. 163 °C

Exercise: Could you tell me which melting point is on file for CC(C)(C)c1ccc([Si](C)(C)COc2cc(C(C)(C)C)c(O)c(C(C)(C)C)c2)cc1 ?
Solution: 114 to 115 °C

====

experimental readout: melting point

- CC(=O)CC(=S)NCC(=O)N1CCC[C@H]1C(=O)O: > 320 °C
- c1ccc(COc2ccc(CCCn3ccnc3)cc2)cc1: 80 to 81 °C
- C=CCOc1ccc2oc(C(=O)OCC)cc2c1: 34 to 36 °C
- O=C(NC1CCC(CNc2nc3c(s2)CCOc2ccccc2-3)CC1)OCc1ccccc1 (stereo not given): 124 to 127 °C

Can you give me melting point for all of these, one by one?
1. COc1ccc2c(c1)C(NC(=O)C(F)(F)F)CC2 (stereo not given)
2. COc1cc(OC)c(NC(=O)C(c2ccccc2)n2nnc(C(c3ccccc3)c3ccccc3)n2)c(OC)c1 (stereo not given)
3. O=C(C(Br)c1ccc(Cl)cc1)C1(c2ccc(Cl)c(Cl)c2)CCC1 (stereo not given)
4. Cc1ccc(N=C(NC#N)NCc2ccc3c(c2)CN(C2CCC(=O)NC2=O)C3=O)cc1Cl (stereo not given)
5. NC(=O)c1ccc2c([N+](=O)[O-])cc3c(c2c1)C(CCl)CN3 (stereo not given)

Solution:
1. 128 to 136 °C
2. 114 to 117 °C
3. 109 to 110 °C
4. 325 to 327 °C
5. > 300 °C

For each of the molecules below, state melting point.
1. CC(=O)c1ccc(OC(CCCCC(=O)O)c2ccccc2)cc1O (stereo not given)
2. COc1ccccc1C(O)(CC#N)c1ccccc1OC
3. CC(Cc1c[nH]c2ccccc12)(NS(=O)(=O)CC12CCC(CC1=O)C2(C)C)C(=O)NC(CO)Cc1ccccc1 (stereo not given)
4. CCCc1nc2c(N)nc3ccc(-c4ccc(CN)cc4)cc3c2s1
5. CCOC(=O)C1=C(O)[C@H](CC2CCCCC2)NC1=O
6. CCOC(=O)C1=C(C)NC(C)=C(C(=O)OC(C)C)C1c1ccccc1C#N (stereo not given)

Solution:
1: 91 to 93 °C; 2: 170 to 180 °C; 3: 81 to 85 °C; 4: 225 to 226 °C; 5: 176 to 180 °C; 6: 152 °C

====

experimental readout: melting point

- COC(=O)c1nsc2ccc(-n3c(=O)cc(C(F)(F)F)n(C)c3=O)cc12: 153 to 156 °C
- COc1cc(C)nc(NC(=O)NS(=O)(=O)c2cccc3c2S(=O)(=O)C(C)C3)n1 (stereo not drawn): 224 to 226 °C

Turning now to a further record.
Exercise: Bench note: what melting point did CSC(=N)NS(=O)(=O)CCl show?
Solution: 60 to 62 °C

====

Give melting point for every item shown.

# annotated cases, reported melting point shown
- O=C(O)[C@H]1CCCN1C(=O)C(F)(F)F: 48 to 51 °C
- CCCOc1ccc(S(=O)(=O)Cl)cc1C(=O)O: 121 to 124 °C

Go through the items and report each one's melting point.
1. O=C(O)c1cccc(Cn2cc(C3c4ccccc4C=Cc4ccccc43)c(=S)[nH]c2=O)c1
2. CC1(C)CN(C2CC3(C)C(CCC4C5CCC(C(=O)CSC#N)C5(C)CC(=O)C43)CC2O)CCO1 (centres undefined)
3. O=[N+]([O-])c1ccc(S(=O)(=O)CCCl)cc1
4. Cc1ccc(N=C=O)c(S(=O)(=O)Cl)c1
5. CN1Cc2c(-c3nc(CCl)co3)ncn2-c2ccsc2C1=O
6. COCOc1ccccc1-c1cc(-c2cccc(C(=O)NC3CCCN(C(=O)OC(C)(C)C)C3)c2)c(C#N)c(NC(=O)c2cccs2)n1 (centres undefined)

Solution:
1. > 230 °C
2. 197 to 198 °C
3. 130 °C
4. 36 to 38.5 °C
5. 200 to 206 °C
6. 167 to 168 °C

Field: melting point. Fill in for each record below.
1. C=C(C)Cc1c(C)c2c(c(C)c1O)CC(C)(C)N2C=O
2. CSc1ccc(C=O)cc1Cl

Solution:
1: 166 to 168 °C; 2: 58 to 59 °C

Each compound below has a reported value. Please supply its melting point.
1. CNC(=Nc1cccc(CN(C)C)n1)NC#N
2. COc1cc(C(C)=NN)ccc1OCCCN1CCC(c2noc3cc(F)ccc23)CC1
3. CCOc1ccccc1-c1ncc(-c2nnn[nH]2)c(=O)[nH]1
4. CC(=O)c1cc(C)ccc1OCCCN1CCC(c2noc3cc(F)ccc23)CC1

Solution:
1: 180 to 181 °C; 2: 106 to 108 °C; 3: 289 to 290 °C; 4: 92 to 93 °C
